- System: IGROV-ET
- experiment-description: SRB colorimetric assay of cell growth and viability, IGROV-ET
- Type: cell-based, human
- test-parameters: 48 hours exposure
Where a SMILES comes first, the peptide text is derived from it. Bridges are numbered along the chain shown (N, C = ends). [ ]: non-standard residue; d: D form. The star is where a group is joined. d(aIle) = CC[C@H](C)[C@@H](N)C(=O)O; d(aThr) = C[C@@H](O)[C@@H](N)C(=O)O; Hexanoyl(5-Me) = CC(C)CCCC(=O)*; Orn = NCCC[C@H](N)C(=O)O; Dhb = C/C=C(\N)C(=O)O
Catalogue of compounds with associated GI50
Unit µM implied. Number only.

Specify GI50 for C/C=C1\NC(=O)[C@H](Cc2ccccc2)NC(=O)[C@@H](C(C)C)NC(=O)[C@@H]([C@@H](C)CC)NC(=O)[C@H](NC(=O)[C@H](NC(=O)[C@H](CCCN)NC(=O)[C@H]2CCCN2C(=O)[C@H](NC(=O)[C@H](CC(C)C)NC(=O)[C@@H](NC(=O)[C@H](NC(=O)CCCC(C)C)C(C)C)[C@@H](C)O)C(C)C)[C@@H](C)CC)[C@@H](C)OC(=O)[C@H](C(C)C)NC1=O [Compound 45, [Leu^11]-KF] ({Hexanoyl(5-Me)}-[dV]TL[dV][dP][Orn][d(aIle)][d(aThr)][d(aIle)][dV]F[Dhb]V; ester 8-C) and stop. 0.421

Specify GI50 for C/C=C1\NC(=O)[C@H](Cc2ccccc2)NC(=O)[C@@H](C(C)C)NC(=O)[C@@H]([C@@H](C)CC)NC(=O)[C@H](NC(=O)[C@H](NC(=O)[C@H](CCCN)NC(=O)[C@H]2CCCN2C(=O)[C@H](NC(=O)[C@@H](NC(=O)[C@@H](NC(=O)[C@H](NC(=O)Cc2cc(F)cc(F)c2)C(C)C)[C@@H](C)O)C(C)C)C(C)C)[C@@H](C)CC)[C@@H](C)OC(=O)[C@H](C(C)C)NC1=O [Compound 22, [3,5-dFPhAc^14]-KF] and stop. 1.07

Specify GI50 for C/C=C1\NC(=O)[C@H](Cc2ccccc2)NC(=O)[C@@H](C(C)C)NC(=O)[C@@H]([C@@H](C)CC)NC(=O)[C@H](NC(=O)[C@H](NC(=O)[C@H](CCCN)NC(=O)[C@H]2CCCN2C(=O)[C@H](NC(=O)[C@@H](NC(=O)[C@@H](NC(=O)[C@H](NC(=O)C(F)(F)C(F)(F)C(F)(F)C(F)(F)C(F)(F)C(F)(F)F)C(C)C)[C@@H](C)O)C(C)C)C(C)C)[C@@H](C)CC)[C@@H](C)OC(=O)[C@H](C(C)C)NC1=O [Compound 26, [Pfh^14]-KF] and stop. 0.199

----------
- Test system: DU-145
- experiment-description: SRB colorimetric assay of cell growth and viability, DU-145
- Assay type: cell-based, human
- test-parameters: 48 hours exposure
- Protocol: The finality of this assay is to interrupt the growth of a “in vitro” tumor cell culture by means a continued exhibition of the cells to the sample to be testing. […] Cells are seeded in 96 well microtiter plates, at 5×10^3 cells per well in aliquots of 195 μL medium, and they are allowed to attach to the plate surface by growing in drug free medium for 18 hours. […] Optical densities are read on a automated spectrophotometric plate reader at a single wavelength of 490 nm. […]
Where a SMILES comes first, the peptide text is derived from it. Bridges are numbered along the chain shown (N, C = ends). [ ]: non-standard residue; d: D form. The star is where a group is joined. d(aIle) = CC[C@H](C)[C@@H](N)C(=O)O; d(aThr) = C[C@@H](O)[C@@H](N)C(=O)O; Hexanoyl(5-Me) = CC(C)CCCC(=O)*; Orn = NCCC[C@H](N)C(=O)O; Dhb = C/C=C(\N)C(=O)O
metric-name: LC50 (concentration causing 50% net cell kill) (µM)
Unit µM implied. Number only.

Specify LC50 (concentration causing 50% net cell kill) for C/C=C1\NC(=O)[C@H](Cc2ccccc2)NC(=O)[C@@H](C(C)C)NC(=O)[C@@H]([C@@H](C)CC)NC(=O)[C@H](NC(=O)[C@H](NC(=O)[C@H](CCCN)NC(=O)[C@H]2CCCN2C(=O)[C@H](NC(=O)CCCC(C)C)C(C)C)[C@@H](C)CC)[C@@H](C)OC(=O)[C@H](C(C)C)NC1=O [Compound 31, [noVal^11, noThr^12, noD-Val^13]-KF] ({Hexanoyl(5-Me)}-[dV][dP][Orn][d(aIle)][d(aThr)][d(aIle)][dV]F[Dhb]V; ester 5-C) and stop. 8.49

----------
Catalogue of molecules with associated GI50
- Test system: PANC-1
- experiment-description: SRB colorimetric assay of cell growth and viability, PANC-1
- Type: cell-based, human
- test-parameters: 48 hours exposure, SRB
Unit nM implied. Number only.

molecule	metric-name	experimental-result
C/C=C1\NC(=O)[C@H](Cc2ccc(Cl)c(Cl)c2)NC(=O)[C@@H](C(C)C)NC(=O)[C@@H]([C@@H](C)CC)NC(=O)[C@H](NC(=O)[C@H](NC(=O)[C@H](CCCN)NC(=O)[C@H]2CCCN2C(=O)[C@H](NC(=O)[C@@H](NC(=O)[C@@H](NC(=O)[C@H](NC(=O)CC[C@@H](C)CC)C(C)C)[C@@H](C)O)C(C)C)C(C)C)[C@@H](C)CC)[C@@H](C)OC(=O)[C@H](C(C)C)NC1=O [Compound 70, [Phe(3,4-Cl2)^3, (4S)-MeHex^14]-KF]	GI50	1000

We now examine a further molecule.
Specify GI50 for C/C=C1\NC(=O)[C@H](Cc2ccc([N+](=O)[O-])cc2)NC(=O)[C@@H](C(C)C)NC(=O)[C@@H]([C@@H](C)CC)NC(=O)[C@H](NC(=O)[C@H](NC(=O)[C@H](CCCN)NC(=O)[C@H]2CCCN2C(=O)[C@H](NC(=O)[C@@H](NC(=O)[C@@H](NC(=O)[C@H](NC(=O)CC[C@@H](C)CC)C(C)C)[C@@H](C)O)C(C)C)C(C)C)[C@@H](C)CC)[C@@H](C)OC(=O)[C@H](C(C)C)NC1=O [Compound 73, [Phe(4-NO2)^3, (4S)-MeHex^14]-KF] and stop. 952

----------
- System: SK-BR-3
- experiment-description: SRB colorimetric assay of cell growth and viability, SK-BR-3
- Type: cell-based, human
- test-parameters: SK-BR-3; 48 hours exposure
Where a SMILES comes first, the peptide text is derived from it. Bridges are numbered along the chain shown (N, C = ends). [ ]: non-standard residue; d: D form. The star is where a group is joined. d(aIle) = CC[C@H](C)[C@@H](N)C(=O)O; d(aThr) = C[C@@H](O)[C@@H](N)C(=O)O; Hexanoyl(5-Me) = CC(C)CCCC(=O)*; Orn = NCCC[C@H](N)C(=O)O; Dhb = C/C=C(\N)C(=O)O
Catalogue of compounds with associated GI50
Unit µM implied. Number only.

compound	experimental-result
C/C=C1\NC(=O)[C@H](Cc2ccccc2)NC(=O)[C@@H](C(C)C)NC(=O)[C@@H]([C@@H](C)CC)NC(=O)[C@H](NC(=O)[C@H](NC(=O)[C@H](CCCN)NC(=O)[C@H]2CCCN2C(=O)[C@H](NC(=O)[C@@H](NC(=O)[C@@H](NC(=O)[C@@H](CCCN)NC(=O)CCCC(C)C)[C@@H](C)O)C(C)C)C(C)C)[C@@H](C)CC)[C@@H](C)OC(=O)[C@H](C(C)C)NC1=O [Compound 118, [D-Orn^13]-KF]	0.851

We now examine a further compound.
Specify GI50 for C/C=C1\NC(=O)[C@H](Cc2ccccc2)NC(=O)[C@@H](C(C)C)NC(=O)[C@@H]([C@@H](C)CC)NC(=O)[C@H](NC(=O)[C@H](NC(=O)[C@H](CCCN)NC(=O)[C@H]2CCCN2C(=O)[C@H](NC(=O)[C@@H](NC(=O)[C@H](CCCN)NC(=O)[C@H](NC(=O)CCCC(C)C)C(C)C)C(C)C)C(C)C)[C@@H](C)CC)[C@@H](C)OC(=O)[C@H](C(C)C)NC1=O [Compound 116, [Orn^12]-KF] ({Hexanoyl(5-Me)}-[dV][Orn]V[dV][dP][Orn][d(aIle)][d(aThr)][d(aIle)][dV]F[Dhb]V; ester 8-C) and stop. 1.45

----------
Catalogue of compounds with associated TGI MEL-28
- Tested on: SK-MEL-28
- experiment-description: SRB colorimetric assay of cell growth and viability, SK-MEL-28
- Type: cell-based, human
- test-parameters: 48 hours exposure
Where a SMILES comes first, the peptide text is derived from it. Bridges are numbered along the chain shown (N, C = ends). [ ]: non-standard residue; d: D form. The star is where a group is joined. d(aIle) = CC[C@H](C)[C@@H](N)C(=O)O; d(aThr) = C[C@@H](O)[C@@H](N)C(=O)O; Hexanoyl(5-Me) = CC(C)CCCC(=O)*; Orn = NCCC[C@H](N)C(=O)O; Dhb = C/C=C(\N)C(=O)O
Unit Molar implied. Number only.

// below: answered compounds
compound	value-units	TGI MEL-28
C/C=C1\NC(=O)[C@H](Cc2ccccc2)NC(=O)[C@@H](C(C)C)NC(=O)[C@@H]([C@@H](C)CC)NC(=O)[C@H](NC(=O)[C@H](NC(=O)[C@H](CCCN)NC(=O)[C@H]2CCCN2C(=O)[C@H](NC(=O)[C@H](CCC(N)=O)NC(=O)[C@@H](NC(=O)[C@H](NC(=O)CCCC(C)C)C(C)C)[C@@H](C)O)C(C)C)[C@@H](C)CC)[C@@H](C)OC(=O)[C@H](C(C)C)NC1=O [Compound 48, [Gln^11]-KF] ({Hexanoyl(5-Me)}-[dV]TQ[dV][dP][Orn][d(aIle)][d(aThr)][d(aIle)][dV]F[Dhb]V; ester 8-C)	Molar	6.64E−06
C/C=C1\NC(=O)[C@H](Cc2ccccc2)NC(=O)[C@@H](C(C)C)NC(=O)[C@@H]([C@@H](C)CC)NC(=O)[C@H](NC(=O)[C@H](NC(=O)[C@H](CCCN)NC(=O)[C@H]2CCCN2C(=O)[C@H](NC(=O)[C@@H](NC(=O)[C@@H](NC(=O)[C@H](NC(=O)c2ccc(C(F)(F)F)cc2)C(C)C)[C@@H](C)O)C(C)C)C(C)C)[C@@H](C)CC)[C@@H](C)OC(=O)[C@H](C(C)C)NC1=O [Compound 21, [p-CF3Bza^14]-KF]	Molar	1.85E−06
C/C=C1\NC(=O)[C@H](Cc2ccccc2)NC(=O)[C@@H](C(C)C)NC(=O)[C@@H]([C@@H](C)CC)NC(=O)[C@H](NC(=O)[C@H](NC(=O)[C@H](CCCN)NC(=O)[C@H]2CCCN2C(=O)[C@H](NC(=O)[C@@H](NC(=O)[C@@H](NC(=O)[C@@H](CC(C)C)NC(=O)CCCC(C)C)[C@@H](C)O)C(C)C)C(C)C)[C@@H](C)CC)[C@@H](C)OC(=O)[C@H](C(C)C)NC1=O [Compound 35, [D-Leu^13]-KF]	Molar	2.10E−06
C/C=C1\NC(=O)[C@H](Cc2ccccc2)NC(=O)[C@@H](C(C)C)NC(=O)[C@@H]([C@@H](C)CC)NC(=O)[C@H](NC(=O)[C@H](NC(=O)[C@H](CCCN)NC(=O)[C@H]2CCCN2C(=O)[C@H](NC(=O)[C@H](CC(C)C)NC(=O)[C@@H](NC(=O)[C@H](NC(=O)CCCC(C)C)C(C)C)[C@@H](C)O)C(C)C)[C@@H](C)CC)[C@@H](C)OC(=O)[C@H](C(C)C)NC1=O [Compound 45, [Leu^11]-KF] ({Hexanoyl(5-Me)}-[dV]TL[dV][dP][Orn][d(aIle)][d(aThr)][d(aIle)][dV]F[Dhb]V; ester 8-C)	Molar	2.05E−06

We now examine a further compound.
Specify TGI MEL-28 for C/C=C1\NC(=O)[C@H](Cc2ccccc2)NC(=O)[C@@H](C(C)C)NC(=O)[C@@H]([C@@H](C)CC)NC(=O)[C@H](NC(=O)[C@H](NC(=O)[C@H](CCCN)NC(=O)[C@H]2CCCN2C(=O)[C@H](NC(=O)[C@@H](NC(=O)[C@@H](NC(=O)[C@H](NC(=O)CC[C@H](C)CC)C(C)C)[C@@H](C)O)C(C)C)C(C)C)[C@@H](C)CC)[C@@H](C)OC(=O)[C@H](C(C)C)NC1=O [Compound 16, [(4R)-MeHex^14]-KF] and stop. 2.09E−06
